test.name: Volume of distribution at steady state in CD-1 mouse at 2 mg/kg, iv administered as cassette dose
Format: ADME, organism-based
condition.info: in vivo, read-out: Vdss
reported.endpoint: Vd
In your response, the unit should come after the numeric value.

In: Fill in the blank: the reported Vd of COc1ccc(/C(=C(\c2ccc(/C=C/C(=O)O)cc2)c2ccc(-c3cn[nH]c3)cc2)C2CCC2)c(Cl)c1 is ____.
Out: 0.6 L/kg

---

Recorded Efficacy for the following compounds
assay.system: Estrogen receptor (Homo sapiens) (UniProt P03372)
Sequence (whole entry): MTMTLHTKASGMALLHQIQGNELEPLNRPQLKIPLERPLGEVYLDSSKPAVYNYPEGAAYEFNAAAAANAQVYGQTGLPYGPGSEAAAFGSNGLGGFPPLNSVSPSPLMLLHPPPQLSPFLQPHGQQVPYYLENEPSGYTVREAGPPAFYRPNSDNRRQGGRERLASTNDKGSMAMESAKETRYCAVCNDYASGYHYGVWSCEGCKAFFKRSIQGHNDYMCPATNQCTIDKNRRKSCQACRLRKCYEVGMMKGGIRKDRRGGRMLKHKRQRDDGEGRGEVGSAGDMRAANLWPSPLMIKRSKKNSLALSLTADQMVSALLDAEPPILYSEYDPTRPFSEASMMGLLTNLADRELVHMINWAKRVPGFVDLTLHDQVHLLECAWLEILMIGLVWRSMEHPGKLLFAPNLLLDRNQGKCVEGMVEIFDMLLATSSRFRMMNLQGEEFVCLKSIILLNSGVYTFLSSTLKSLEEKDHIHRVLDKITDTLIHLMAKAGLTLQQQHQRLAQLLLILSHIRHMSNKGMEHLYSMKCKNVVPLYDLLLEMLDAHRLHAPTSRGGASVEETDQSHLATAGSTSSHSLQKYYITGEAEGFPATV
test.name: Induction of ERalpha degradation in human MCF7 cells in phenol red free RPMI medium containing 5% charcoal-stripped FBS incubated for 4 hrs by IRDye 800CW/DRAQ5 dye based in-cell Western assay relative to fulvestrant
Reply with just the number (in %).

In: Fill in the blank: the reported Efficacy of CC/C(=C(/c1ccc(/C=C/C(=O)O)cc1)c1ccc(-c2cn[nH]c2)cc1)c1ccccc1 is ____.
Out: 91

In: And what about the compound CC/C(=C(/c1ccc(/C=C/C(=O)O)cc1)c1ccc2scnc2c1)c1ccccc1 ?
Out: 89

In: And what about the compound CC/C(=C(/c1ccc(/C=C/C(=O)O)cc1)c1ccc(N2CCOCC2)cc1)c1ccccc1 ?
Out: 91

In: And what about the compound CC/C(=C(/c1ccc(/C=C/C(=O)O)cc1)c1ccc(-c2cscn2)cc1)c1ccccc1 ?
Out: 90

In: And what about the compound CC/C(=C(/c1ccc(/C=C/C(=O)O)cc1)c1ccc(-c2cnco2)cc1)c1ccccc1 ?
Out: 92

In: And what about the compound N#Cc1cc(Cl)ccc1/C(=C(\c1ccc(/C=C/C(=O)O)cc1)c1ccc(N2CCOCC2)cc1)C1CCC1 ?
Out: 92

In: And what about the compound CC/C(=C(/c1ccc(/C=C/C(=O)O)cc1)c1ccc(-c2cnsc2)cc1)c1ccccc1 ?
Out: 89

In: And what about the compound N#Cc1ccc(/C(=C(\c2ccc(/C=C/C(=O)O)cc2)c2ccc3nccn3c2)C2CCC2)c(Cl)c1 ?
Out: 93

In: And what about the compound N#Cc1ccc(/C(=C(\c2ccc(/C=C/C(=O)O)cc2)c2ccc(N3CCOCC3)cc2)C2CCC2)c(Cl)c1 ?
Out: 92
